# Tested on: anesthetized rats
# Assay method text: Anesthetized rat spirometry screening assay (ventilatory activity, minute volume)
# Format: in vivo
# Condition set: 3.0 mg/kg IV bolus, increase in minute volume (VE), read-out: VE % Inc @ 3.0 mg/kg IV
Where a name gives a salt, the structure may show the parent alone.
Value kind: change in vivo at 3 mg/kg (%)

Compound	Value kind	Experimental value
CCCNc1nc(NC)nc2c(N[C@H]3CCC[C@@H]3O)nc(NC)nc12	change in vivo at 3 mg/kg	92
CC[C@H](C)Nc1nc(NC)c2nc(NC[C@H](C)O)nc(NC)c2n1	change in vivo at 3 mg/kg	120
CCCNc1nc(NC)nc2c(N[C@@H]3c4ccccc4C[C@H]3O)nc(NC)nc12	change in vivo at 3 mg/kg	95
CCCNc1nc(NC)c2nc(N[C@@H]3CCC[C@H]3O)nc(NC)c2n1	change in vivo at 3 mg/kg	146
C=CCNc1nc(NC)c2nc(NCCO)nc(NC)c2n1	change in vivo at 3 mg/kg	103
CCCNc1nc(NC)c2nc(N[C@@H]3CCCC[C@H]3O)nc(NC)c2n1	change in vivo at 3 mg/kg	103
CC[C@@H](C)Nc1nc(NC)c2nc(NCC(C)(C)O)nc(NC)c2n1	change in vivo at 3 mg/kg	61
CC[C@H](C)Nc1nc(NC)nc2c(NCC(C)(C)O)nc(NC)nc12 [Compound 42a, Hydrochloride]	change in vivo at 3 mg/kg	149
CCCNc1nc(NC)c2nc(NC(C)C(C)O)nc(NC)c2n1 (stereo not shown)	change in vivo at 3 mg/kg	151
CCCNc1nc(NC)nc2c(N[C@@H]3CCCC[C@H]3O)nc(NC)nc12	change in vivo at 3 mg/kg	83
CNc1nc(NC)c2nc(NCC(C)(C)O)nc(NC)c2n1	change in vivo at 3 mg/kg	49
CC[C@@H](C)Nc1nc(NC)nc2c(NCC(C)(C)O)nc(NC)nc12 [Compound 40a, Hydrochloride]	change in vivo at 3 mg/kg	158
CCCNc1nc(NC)nc2c(N[C@H]3c4ccccc4C[C@@H]3O)nc(NC)nc12	change in vivo at 3 mg/kg	180
CCNc1nc(NCC)c2nc(NC[C@H](C)O)nc(NCC)c2n1	change in vivo at 3 mg/kg	101
C=C(C)CNc1nc(NC)c2nc(NC[C@H](C)O)nc(NC)c2n1	change in vivo at 3 mg/kg	160
CNc1nc(NCC(C)(C)O)c2nc(NC)nc(NC)c2n1 [Compound 48a, Hydrochloride]	change in vivo at 3 mg/kg	78
CCCNc1nc(NC)nc2c(N(C)CC(C)O)nc(NC)nc12 (stereo not shown) [Compound 73a, Hydrochloride]	change in vivo at 3 mg/kg	79
CCCNc1nc(NC)nc2c(N[C@H]3c4ccccc4C[C@H]3O)nc(NC)nc12	change in vivo at 3 mg/kg	162
C=C(C)CNc1nc(NCC)c2nc(NC[C@@H](C)O)nc(NCC)c2n1	change in vivo at 3 mg/kg	114
CCCNc1nc(NC)nc2c(NCC3(O)CCC3)nc(NC)nc12 [Compound 72a, Hydrochloride]	change in vivo at 3 mg/kg	150
CCCNc1nc(NC)nc2c(NCC(O)CC)nc(NC)nc12 (stereo not shown) [Compound 24a, Hydrochloride]	change in vivo at 3 mg/kg	121
CCCNc1nc(NC)c2nc(NC[C@H](C)O)nc(NC)c2n1	change in vivo at 3 mg/kg	190
C=CCNc1nc(NC)c2nc(N(CCC)C[C@H](C)O)nc(NC)c2n1	change in vivo at 3 mg/kg	79
C=C(C)CNc1nc(NCC)c2nc(NC[C@H](C)O)nc(NCC)c2n1	change in vivo at 3 mg/kg	134
CCCNc1nc(NCC)c2nc(NC[C@@H](C)O)nc(NCC)c2n1	change in vivo at 3 mg/kg	142
CCCNc1nc(NC)c2nc(NCC(C)(C)O)nc(NC)c2n1	change in vivo at 3 mg/kg	130
CCCNc1nc(NC)nc2c(N[C@@H]3c4ccccc4C[C@@H]3O)nc(NC)nc12	change in vivo at 3 mg/kg	170
CCCNc1nc(NC)c2nc(N(C)CC(C)O)nc(NC)c2n1 (stereo not shown)	change in vivo at 3 mg/kg	140

* * *

# System: anesthetized rats
# Assay method text: Anesthetized rat spirometry screening assay (ventilatory activity, minute volume)
# Type: in vivo
# Condition set: 3.0 mg/kg IV bolus, increase in minute volume (VE), read-out: VE % Inc @ 3.0 mg/kg IV
Structures can show the parent of a compound that is named as a salt.

Compound	change in vivo at 3 mg/kg, %
CCCNc1nc(NC)c2nc(N[C@H]3CCCC[C@H]3O)nc(NC)c2n1	142
CCNc1nc(NCC)c2nc(NC[C@@H](C)O)nc(NCC)c2n1	90
CNc1nc(NC[C@@H](C)O)nc2c(NC)nc(N)nc12	95
CCNc1nc(NC[C@H](C)O)nc2c(NCC)nc(N)nc12	155
CNc1nc(NCC(F)F)c2nc(NC)nc(NCCO)c2n1 [Compound 60a, Hydrochloride]	119
CNc1nc(NCC(C)(C)O)nc2c(NC)nc(NCC(F)F)nc12	95
CCCNc1nc(NC)c2nc(N[C@H]3c4ccccc4C[C@@H]3O)nc(NC)c2n1	84
CCNc1nc(NC[C@@H](C)O)nc2c(NCC)nc(N)nc12	175
CCCNc1nc(NCC)c2nc(NC[C@H](C)O)nc(NCC)c2n1	91
CCCNc1nc(NC)nc2c(N[C@H]3CCCC[C@@H]3O)nc(NC)nc12	153
CCCNc1nc(NC)c2nc(NCC(O)CC)nc(NC)c2n1 (stereo not drawn)	162
CNc1nc(NCC(C)(C)O)c2nc(NC)nc(NCc3ncccn3)c2n1 [Compound 38a, Hydrochloride]	27
CCCNc1nc(NC)c2nc(N[C@H]3c4ccccc4C[C@H]3O)nc(NC)c2n1	108
CNc1nc(NCC(C)(C)O)c2nc(NC)nc(NCc3ccccc3)c2n1 [Compound 44a, Hydrochloride]	132
CCCNc1nc(NC)c2nc(N(C)CC(C)(C)O)nc(NC)c2n1	96
CCCNc1nc(NC)nc2c(NC(C)C(C)O)nc(NC)nc12 (stereo not drawn) [Compound 26a, Hydrochloride]	143
CCCNc1nc(NC)c2nc(NC[C@@H](C)O)nc(NC)c2n1	151
CCNc1nc(NC)c2nc(NCC(O)CC)nc(NC)c2n1 (stereo not drawn)	147
